Target Entity: P2Y purinoceptor 4 (Homo sapiens)
Assay Comment: Antagonist activity at human P2Y4 receptor transfected in human 1321N1 cells assessed as inhibition of UTP-activated intracellular calcium mobilization preincubated for 30 mins followed by UTP addition by fluo-4-dye based fluorescence assay
The class of a record is decided solely by its measured IC50; consult one = under 3 µM, two = from 3 µM up to 9 µM, three = 9 µM and over

See these solved cases before continuing.
{"Smiles Text": "O=C1c2ccccc2C(=O)c2c(Nc3cccc(F)c3)cc(S(=O)(=O)O)cc21", "Cat": "three"}
{"Smiles Text": "Nc1c(S(=O)(=O)O)cc(Nc2ccc(O)cc2C(=O)O)c2c1C(=O)c1ccccc1C2=O", "Cat": "three"}
{"Smiles Text": "Nc1c(S(=O)(=O)O)cc(Nc2ccc(F)cc2C(=O)O)c2c1C(=O)c1ccccc1C2=O", "Cat": "three"}
{"Smiles Text": "Nc1c(S(=O)(=O)O)cc(Nc2ccc(O)cc2)c2c1C(=O)c1ccccc1C2=O", "Cat": "two"}
{"Smiles Text": "Nc1c(S(=O)(=O)O)cc(Nc2cccc(Br)c2)c2c1C(=O)c1ccccc1C2=O", "Cat": "two"}

# classify by IC50 band: `Cc1cc(Nc2ccc(F)cc2C(=O)O)c2c(c1N)C(=O)c1ccccc1C2=O`
three

Just checking, what class would you give `Cc1ccc(Sc2ccc(Nc3cc(S(=O)(=O)O)c(N)c4c3C(=O)c3ccccc3C4=O)cc2)c(C)c1` here?
one

Category lookup for the compound `Cc1cc(Nc2cc(S(=O)(=O)O)c(N)c3c2C(=O)c2ccccc2C3=O)ccc1Cl`
one

Determine which band this compound sits in: `COc1ccc(Nc2cc(S(=O)(=O)O)c(N)c3c2C(=O)c2ccccc2C3=O)cc1OC`
two

For `Nc1c(S(=O)(=O)O)cc(Nc2cc(F)ccc2C(=O)O)c2c1C(=O)c1ccccc1C2=O` , which IC50 bin applies?
three

// return the class label for `Nc1c(S(=O)(=O)O)cc(Nc2cccc(F)c2C(=O)O)c2c1C(=O)c1ccccc1C2=O`
three

Sort `Nc1c(S(=O)(=O)O)cc(Nc2ccc(Oc3ccc(Br)cc3)cc2)c2c1C(=O)c1ccccc1C2=O` into one of the categories.
one

Which of the defined bands does the recorded IC50 of `Nc1c(S(=O)(=O)O)cc(Nc2ccc(Oc3ccc(F)cc3)cc2)c2c1C(=O)c1ccccc1C2=O` sit within?
one

Bin this entry: `Nc1c(S(=O)(=O)O)cc(Nc2cccc3ccccc23)c2c1C(=O)c1ccccc1C2=O`
two

---

Target Entity: P2Y purinoceptor 1 (Homo sapiens)
Sequence (P47900 whole entry): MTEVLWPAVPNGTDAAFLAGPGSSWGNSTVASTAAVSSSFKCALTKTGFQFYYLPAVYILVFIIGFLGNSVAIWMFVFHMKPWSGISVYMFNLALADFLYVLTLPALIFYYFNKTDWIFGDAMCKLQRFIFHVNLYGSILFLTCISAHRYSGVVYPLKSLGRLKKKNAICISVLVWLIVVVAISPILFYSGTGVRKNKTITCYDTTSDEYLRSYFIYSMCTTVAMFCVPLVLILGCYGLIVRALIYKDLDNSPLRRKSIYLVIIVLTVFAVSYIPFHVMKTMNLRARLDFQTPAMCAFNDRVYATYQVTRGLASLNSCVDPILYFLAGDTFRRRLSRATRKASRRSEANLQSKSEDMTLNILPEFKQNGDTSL
Assay Comment: Antagonist activity at human P2Y1 receptor transfected in human 1321N1 cells assessed as inhibition of ADP-activated intracellular calcium mobilization preincubated for 30 mins followed by ADP addition by fluo-4-dye based fluorescence assay
// boundary case: IC50 equal to 5 µM maps to class 0; strictly smaller maps to class 1

Worked examples, 5 compounds total:
{"Compound": "Nc1c(S(=O)(=O)O)cc(Nc2ccccc2)c2c1C(=O)c1ccccc1C2=O [ACID BLUE 25]", "Cat": "class 0"}
{"Compound": "Cc1ccc(Sc2ccc(Nc3cc(S(=O)(=O)O)c(N)c4c3C(=O)c3ccccc3C4=O)cc2)cc1C", "Cat": "class 1"}
{"Compound": "Cc1ccc(Sc2ccc(Nc3cc(S(=O)(=O)O)c(N)c4c3C(=O)c3ccccc3C4=O)cc2)c(C)c1", "Cat": "class 0"}
{"Compound": "Cc1ccc(C)c(Sc2ccc(Nc3cc(S(=O)(=O)O)c(N)c4c3C(=O)c3ccccc3C4=O)cc2)c1", "Cat": "class 1"}
{"Compound": "Nc1c(S(=O)(=O)O)cc(Nc2ccc(SCc3cccnc3)cc2)c2c1C(=O)c1ccccc1C2=O", "Cat": "class 0"}

Kindly review the next compound as well.
Determine if `Cc1cc(Nc2cc(S(=O)(=O)O)c(N)c3c2C(=O)c2ccccc2C3=O)ccc1O` shows IC50 strictly lower than 5 µM.
class 0

---

Target Entity: P2Y purinoceptor 4 (Homo sapiens, UniProt P51582)
Sequence (P51582 whole entry): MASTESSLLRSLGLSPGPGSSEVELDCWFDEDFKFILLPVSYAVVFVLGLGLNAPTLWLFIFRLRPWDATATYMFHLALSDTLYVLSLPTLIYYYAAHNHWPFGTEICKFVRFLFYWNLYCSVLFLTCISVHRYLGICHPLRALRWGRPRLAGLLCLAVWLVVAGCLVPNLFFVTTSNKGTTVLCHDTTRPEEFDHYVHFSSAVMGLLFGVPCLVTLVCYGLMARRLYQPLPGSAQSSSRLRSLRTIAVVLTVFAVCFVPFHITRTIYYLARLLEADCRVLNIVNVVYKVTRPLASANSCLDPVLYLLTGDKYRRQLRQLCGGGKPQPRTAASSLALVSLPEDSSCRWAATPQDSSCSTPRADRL
Assay Comment: Antagonist activity at human P2Y4 receptor transfected in human 1321N1 cells assessed as inhibition of UTP-activated intracellular calcium mobilization preincubated for 30 mins followed by UTP addition by fluo-4-dye based fluorescence assay
Each record gets a class by IC50: low bracket (below 2000 nM), middle bracket (2000 nM to below 4000 nM), high bracket (4000 nM or more)

{"Smiles Text": "COc1cc(Nc2cc(S(=O)(=O)O)c(N)c3c2C(=O)c2ccccc2C3=O)ccc1C", "Target Entity": "P2Y purinoceptor 4 (Homo sapiens, UniProt P51582)", "Cat": "high bracket"}
{"Smiles Text": "Cc1cc(Nc2cc(S(=O)(=O)O)c(N)c3c2C(=O)c2ccccc2C3=O)ccc1O", "Target Entity": "P2Y purinoceptor 4 (Homo sapiens, UniProt P51582)", "Cat": "low bracket"}
{"Smiles Text": "Nc1c(S(=O)(=O)O)cc(Nc2ccc(F)cc2C(=O)O)c2c1C(=O)c1ccccc1C2=O", "Target Entity": "P2Y purinoceptor 4 (Homo sapiens, UniProt P51582)", "Cat": "high bracket"}
{"Smiles Text": "Cc1ccc(C)c(Sc2ccc(Nc3cc(S(=O)(=O)O)c(N)c4c3C(=O)c3ccccc3C4=O)cc2)c1", "Target Entity": "P2Y purinoceptor 4 (Homo sapiens, UniProt P51582)", "Cat": "low bracket"}
{"Smiles Text": "Cc1ccc(Nc2cc(S(=O)(=O)O)c(N)c3c2C(=O)c2ccccc2C3=O)c(C)c1", "Target Entity": "P2Y purinoceptor 4 (Homo sapiens, UniProt P51582)", "Cat": "middle bracket"}

# classify by IC50 band: `CCc1cccc(Nc2cc(S(=O)(=O)O)c(N)c3c2C(=O)c2ccccc2C3=O)c1`
low bracket

Tag the class for `Cc1cccc(Nc2cc(S(=O)(=O)O)c(N)c3c2C(=O)c2ccccc2C3=O)c1C`
middle bracket

Sort into band: `Nc1c(S(=O)(=O)O)cc(Nc2ccc(Cl)cc2)c2c1C(=O)c1ccccc1C2=O`
middle bracket

Lab note: which band did `Nc1c(S(=O)(=O)O)cc(Nc2ccc([N+](=O)[O-])cc2C(=O)O)c2c1C(=O)c1ccccc1C2=O` land in?
high bracket

---

Target Entity: P2Y purinoceptor 4 (Homo sapiens)
Assay Comment: Antagonist activity at human P2Y4 receptor transfected in human 1321N1 cells assessed as inhibition of UTP-activated intracellular calcium mobilization preincubated for 30 mins followed by UTP addition by fluo-4-dye based fluorescence assay
Test Readout: pIC50
# pIC50 is unitless: minus log10 of the molar concentration; print number only

Please review the entries below; each comes with its answer.
{"Smiles Text": "Nc1c(S(=O)(=O)O)cc(NCc2ccccc2)c2c1C(=O)c1ccccc1C2=O", "Observed": 4.84}
{"Smiles Text": "Nc1c(S(=O)(=O)O)cc(Nc2ccc(Sc3ccccc3)cc2)c2c1C(=O)c1ccccc1C2=O", "Observed": 5.93}

Reported pIC50 for `CCc1ccc(Nc2cc(S(=O)(=O)O)c(N)c3c2C(=O)c2ccccc2C3=O)cc1` was 5.49

Record `Cc1ccc(Nc2cc(S(=O)(=O)O)c(N)c3c2C(=O)c2ccccc2C3=O)cc1` . Reported pIC50: 5.55

The recorded pIC50 for `Nc1c(S(=O)(=O)O)cc(Nc2ccc(Oc3ccc(Cl)cc3)cc2)c2c1C(=O)c1ccccc1C2=O` is 6.43

---

Target Entity: P2Y purinoceptor 4 (Homo sapiens)
Assay Comment: Antagonist activity at human P2Y4 receptor transfected in human 1321N1 cells assessed as inhibition of UTP-activated intracellular calcium mobilization preincubated for 30 mins followed by UTP addition by fluo-4-dye based fluorescence assay
Test Readout: pIC50
# log scale: pIC50 equals minus log10 of the concentration in mol/L

// pIC50 (P2Y purinoceptor 4 (Homo sapiens)) for `CCCc1cccc(Nc2cc(S(=O)(=O)O)c(N)c3c2C(=O)c2ccccc2C3=O)c1` = 5.52

The reported P2Y purinoceptor 4 (Homo sapiens) pIC50 of `COc1cc(Nc2cc(S(=O)(=O)O)c(N)c3c2C(=O)c2ccccc2C3=O)cc(OC)c1` is 5.03

The molecule `Nc1c(S(=O)(=O)O)cc(Nc2ccc(C(=O)O)cc2)c2c1C(=O)c1ccccc1C2=O` , when measured on P2Y purinoceptor 4 (Homo sapiens), yielded pIC50 of 4.52

Item `Cc1ccccc1Nc1cc(S(=O)(=O)O)c(N)c2c1C(=O)c1ccccc1C2=O` was tested on P2Y purinoceptor 4 (Homo sapiens); the reported pIC50 is 5.46

---

Target Entity: P2Y purinoceptor 4 (Homo sapiens)
Assay Comment: Antagonist activity at human P2Y4 receptor transfected in human 1321N1 cells assessed as inhibition of UTP-activated intracellular calcium mobilization preincubated for 30 mins followed by UTP addition by fluo-4-dye based fluorescence assay
Listed here: items and their measured IC50.

For this molecule ( `Nc1c(S(=O)(=O)O)cc(Nc2ccc(Cl)cc2C(=O)O)c2c1C(=O)c1ccccc1C2=O` ), measured IC50 is > 100000 nM

get_value(item= Nc1c(S(=O)(=O)O)cc(Nc2ccccc2)c2c1C(=O)c1ccccc1C2=O [ACID BLUE 25] , readout=IC50) returns 1970 to 3100 nM
